assay: Crystalline and amorphous solubility of the substance; format: physicochemical; conditions: 25 °C, water, thermodynamic from solid; crystalline form; read-out: crystalline solubility
QUANTITY_NAME: solubility (µM)
Give just the number in µM; leave the unit off.

Item under review: CCOC(=O)C1=C(C)NC(C)=C(C(=O)OC)C1c1cccc(Cl)c1Cl (stereo not shown) . Reported solubility? 2

Data origin: patent US7780989B2
